experimental target: UniProt Q04771
Sequence (Q04771 147-509): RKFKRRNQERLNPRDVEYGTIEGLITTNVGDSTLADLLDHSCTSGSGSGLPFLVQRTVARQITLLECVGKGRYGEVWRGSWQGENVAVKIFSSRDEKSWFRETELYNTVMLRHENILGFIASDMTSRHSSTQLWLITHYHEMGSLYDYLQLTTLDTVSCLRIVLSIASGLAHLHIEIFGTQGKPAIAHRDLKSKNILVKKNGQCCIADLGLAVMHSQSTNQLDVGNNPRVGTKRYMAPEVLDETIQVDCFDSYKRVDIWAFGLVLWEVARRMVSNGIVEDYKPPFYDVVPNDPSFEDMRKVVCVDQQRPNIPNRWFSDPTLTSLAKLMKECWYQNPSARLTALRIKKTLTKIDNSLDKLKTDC
method: ALK2 HTRF Assay
Assay type: biochemical
run conditions: ALK2 100 μM IC50, 100 uM ATP
test readout: IC50

Solved entries:
[
  {
    "compound": "C[C@@H]1CN(c2ccc(-c3n[nH]c4cnc(N5[C@H](C)COC[C@@H]5C)nc34)cn2)CCN1",
    "IC50": "100 to 500 nM"
  },
  {
    "compound": "Cc1cc(-n2cc(-c3n[nH]c4cnc(N5C6CCC5C(=O)N(C)C6)nc34)cn2)ccn1 (centres unmarked)",
    "IC50": "500 to 2000 nM"
  },
  {
    "compound": "Cn1cc(-c2n[nH]c3cnc(N4C5CCC4C(=O)N(CCF)C5)nc23)cn1 (centres unmarked)",
    "IC50": "500 to 2000 nM"
  }
]

Any idea what IC50 came out for `CN1CCN(c2ncc3[nH]nc(-c4cnn(C)c4)c3n2)CC1=O` on UniProt Q04771? 500 to 2000 nM

Hi! What's the reported IC50 for CNC(=O)c1ccc(-n2cc(-c3n[nH]c4cnc(N5C6CCC5C(=O)N(C)C6)nc34)cn2)cn1 (centres unmarked) on UniProt Q04771? 500 to 2000 nM
